B1: CLINT1 (parent)
chain: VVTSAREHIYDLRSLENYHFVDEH

- Variants of: B1
- RUN DESCRIPTION: protein stability index of a GFP-peptide fusion (GPS, HEK-293T) (PSI 1-6); higher = more stable;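 note: lentivirally expressed fusions sorted by FACS into six bins by GFP to DsRed ratio, PSI derived from sequencing read proportions per bin multiplied by bin number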
- CONDITION PARAMETERS: c terminus: a fixed tail appended
PROPERTY NAME: protein stability index
Lab note: record the figure alone, no unit after it.

For this variant ( L12Y ), measured protein stability index is 2.4

Next:
Record L12Q . Reported protein stability index: 4.09

// Y18W : protein stability index value = 2.94

Briefly, protein stability index measured for F20H : 3.57

For T3Q the variant record lists protein stability index as 3.25

For reference, reported protein stability index for N17R stands at 2.95

The variant listed as E23Y shows protein stability index equal to 1.26

For record Y10N the listed protein stability index is 3.71

Noted for V2E : its protein stability index reads 3.67

Record D22H , field protein stability index: 2.93

Noted for N17H : its protein stability index reads 2.45

Quick note, protein stability index for S14C landed at 2.24

Per the records, this variant ( E23D ) has protein stability index equal to 2.86

Per the record, E16A has protein stability index of 2.19

Measured protein stability index, H24V : 2.38

Lab note: S4I gave protein stability index of 2.1

The variant listed as H24S shows protein stability index equal to 3.44

In plain terms, Y10T has a documented protein stability index of 3.8

Memo: L15D , reported protein stability index: 3.8
